Molecular target: Human Axl (Homo sapiens (Human), UniProt P30530, Q764R)
Sequence (P30530 473-894 Q764R): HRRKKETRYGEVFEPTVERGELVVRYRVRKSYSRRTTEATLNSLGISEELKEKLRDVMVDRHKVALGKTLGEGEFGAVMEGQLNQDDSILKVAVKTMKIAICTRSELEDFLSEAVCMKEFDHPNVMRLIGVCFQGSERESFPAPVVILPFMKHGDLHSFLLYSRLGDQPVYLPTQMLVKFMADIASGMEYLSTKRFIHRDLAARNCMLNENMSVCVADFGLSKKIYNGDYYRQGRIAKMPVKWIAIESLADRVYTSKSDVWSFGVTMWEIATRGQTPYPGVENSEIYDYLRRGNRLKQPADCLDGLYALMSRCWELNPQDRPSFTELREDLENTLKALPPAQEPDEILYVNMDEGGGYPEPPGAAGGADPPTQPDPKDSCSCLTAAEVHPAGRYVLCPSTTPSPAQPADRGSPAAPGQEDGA
Test: Human AXL kinase assay (33P radiometric, KinaseProfiler)
Settings: 10 μM ATP
IC50 values for the molecules below.

Please review the entries below; each comes with its answer.
> print(dat)
                            chemical.string     assay.value
1  CNC(=O)c1cc2c(Oc3ccc(NC(=O)C4(C(=O)Nc5ccc(F)cc5)CC4)cn3)ccnc2cc1OC    10 to 100 nM
2  COc1cc2nccc(Oc3ccc(NC(=O)C4(C(=O)Nc5ccc(F)cc5)CC4)cn3)c2cc1C(=O)O  100 to 1000 nM
3  COc1cc2nccc(Oc3ncc(NC(=O)C4(C(=O)Nc5ccc(F)cc5)CC4)cc3Cl)c2cc1C(=O)O  100 to 1000 nM

Then there is this molecule:
Request: Reported IC50, molecule COc1cc2nccc(Oc3ncc(NC(=O)C4(C(=O)Nc5ccc(F)cc5)CC4)cc3Cl)c2nc1OC : ____
Response: 10 to 100 nM

* * *

Target: AXL (Homo sapiens (Human))
Test: AXL autophosphorylation ELISA in A-172 cells
Details: cellular, Gas6-stimulated, phospho-AXL ELISA
pIC50: −log10 of the molar value.
pIC50 values for the molecules below.

Please review the entries below; each comes with its answer.
> print(dat)
                            chemical.string   assay.value
1  COc1cc2nccc(Oc3nc(F)c(NC(=O)C4(C(=O)Nc5ccc(F)cc5)CC4)cc3F)c2nc1OC        ≥ 8.00
2  O=C(Nc1ccc(F)cc1)C1(C(=O)Nc2cnc(Oc3ccnc4cc5c(nc34)OCCO5)c(F)c2)CC1        < 6.52
3  COC(=O)c1cc2c(Oc3ccc(NC(=O)C4(C(=O)Nc5ccc(F)cc5)CC4)cn3)ccnc2cc1OC  7.00 to 8.00

Request: Reported pIC50, molecule COc1cc2nccc(Oc3ccc(NC(=O)C4(C(=O)Nc5ccc(F)cc5)CC4)cn3)c2nc1OC : ____
Response: 6.52 to 7.00

Request: Reported pIC50, molecule COc1cc2nccc(Oc3ncc(NC(=O)C4(C(=O)Nc5ccc(F)cc5)CC4)cc3F)c2nc1OC : ____
Response: 7.00 to 8.00

Request: Reported pIC50, molecule COc1nc2c(Oc3ncc(NC(=O)C4(C(=O)Nc5ccc(F)cc5)CC4)cc3F)ccnc2cc1OCCCN1CCOCC1 : ____
Response: 7.00 to 8.00

Request: Reported pIC50, molecule NC(=O)c1cc2c(Oc3ncc(NC(=O)C4(C(=O)Nc5ccc(F)cc5)CC4)cc3Cl)ccnc2cc1OCCO : ____
Response: 7.00 to 8.00

Request: Reported pIC50, molecule COCCOc1cc2nccc(Oc3ccc(NC(=O)C4(C(=O)Nc5ccc(F)cc5)CC4)cn3)c2nc1OC : ____
Response: 6.52 to 7.00

* * *

Target: AXL (Homo sapiens (Human), UniProt P30530)
Sequence (P30530 26-894): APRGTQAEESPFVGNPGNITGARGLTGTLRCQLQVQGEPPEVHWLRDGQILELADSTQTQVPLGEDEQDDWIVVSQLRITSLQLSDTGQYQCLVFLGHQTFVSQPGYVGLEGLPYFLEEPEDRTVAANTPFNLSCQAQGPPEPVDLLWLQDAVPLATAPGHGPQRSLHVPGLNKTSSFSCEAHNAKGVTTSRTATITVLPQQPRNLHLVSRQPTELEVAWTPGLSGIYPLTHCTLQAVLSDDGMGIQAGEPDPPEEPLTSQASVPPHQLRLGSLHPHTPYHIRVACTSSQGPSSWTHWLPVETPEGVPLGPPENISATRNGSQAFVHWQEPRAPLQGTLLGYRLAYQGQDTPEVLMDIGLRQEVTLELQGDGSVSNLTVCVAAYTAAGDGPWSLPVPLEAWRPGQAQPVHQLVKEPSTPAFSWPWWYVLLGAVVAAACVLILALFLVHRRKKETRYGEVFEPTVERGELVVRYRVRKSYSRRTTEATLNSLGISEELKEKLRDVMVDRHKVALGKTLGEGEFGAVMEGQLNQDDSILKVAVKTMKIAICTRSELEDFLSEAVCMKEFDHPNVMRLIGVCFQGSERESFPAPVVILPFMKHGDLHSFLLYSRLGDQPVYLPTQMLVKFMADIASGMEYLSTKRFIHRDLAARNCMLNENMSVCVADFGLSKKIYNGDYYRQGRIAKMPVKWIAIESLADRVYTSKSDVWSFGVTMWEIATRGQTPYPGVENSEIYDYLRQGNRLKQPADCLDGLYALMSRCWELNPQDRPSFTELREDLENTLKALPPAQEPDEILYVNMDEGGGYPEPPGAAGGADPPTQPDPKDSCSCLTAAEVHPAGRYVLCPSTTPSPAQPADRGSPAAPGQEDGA
Assay: AXL autophosphorylation ELISA in A-172 cells
Details: cellular, Gas6-stimulated, phospho-AXL ELISA
Quantity Name: IC50

Please review the entries below; each comes with its answer.
> print(dat)
                                   compound    assay.value
1  COc1nc2c(Oc3ncc(NC(=O)C4(C(=O)Nc5ccc(F)cc5)CC4)cc3F)ccnc2cc1OCCCN(C)C   10 to 100 nM
2  COCCc1noc(-c2cc3c(Oc4ncc(NC(=O)C5(C(=O)Nc6ccc(F)cc6)CC5)cc4F)ccnc3cc2OC)n1       > 300 nM
3  CCNC(=O)c1cc2c(Oc3ncc(NC(=O)C4(C(=O)Nc5ccc(F)cc5)CC4)cc3Cl)ccnc2cc1OC   10 to 100 nM
4  CNC(=O)c1cc2c(Oc3ncc(NC(=O)C4(C(=O)Nc5ccc(F)cc5)CC4)cc3F)ccnc2cc1OC        ≤ 10 nM
5  COc1cc2nccc(Oc3ncc(NC(=O)C4(C(=O)Nc5ccc(F)cc5)CC4)cc3C(F)(F)F)c2nc1OC       > 300 nM
6  COCCOc1cc2nccc(Oc3ncc(NC(=O)C4(C(=O)Nc5ccc(F)cc5)CC4)cc3Cl)c2nc1OC  100 to 300 nM
7  COc1cc2nccc(Oc3ncc(NC(=O)C4(C(=O)Nc5ccc(F)cc5)CC4)cc3F)c2cc1-c1ncc[nH]1        ≤ 10 nM
8  CC(O)COc1cc2nccc(Oc3ncc(NC(=O)C4(C(=O)Nc5ccc(F)cc5)CC4)cc3Cl)c2cc1C(N)=O (centres unmarked)   10 to 100 nM

Request: Reported IC50, compound O=C(Nc1ccc(F)cc1)C1(C(=O)Nc2ccc(Oc3ccnc4cc5c(nc34)OCCO5)nc2)CC1 : ____
Response: > 300 nM

Request: Reported IC50, compound COCCOc1cc2ncnc(Oc3ncc(NC(=O)C4(C(=O)Nc5ccc(F)cc5)CC4)cc3F)c2nc1OC : ____
Response: > 300 nM

Request: Reported IC50, compound COc1cc2nccc(Oc3ncc(NC(=O)C4(C(=O)Nc5ccc(F)cc5)CC4)cc3OC)c2nc1OC : ____
Response: > 300 nM

Ref: patent US11673897B2
